Sourced from patent US20050107432A1

Molecular target: Sigma receptor
Assay: Sigma receptor binding assay (3H-DTG, guinea pig brain crude membrane fraction)
Details: inhibition of 3H-DTG binding to guinea pig brain crude membrane fraction, 25° C., 1 hour
Method: Sigma Receptor Binding Assay (1) Preparation of Receptor Ten male guinea pigs (Crj, Hartley, from Charles River Japan, Inc.) (body weight: 234 g to 260 g) were decapitated, exsanguinated and died. […] The filter paper was transferred to a vial for radioactivity measurement, mixed with 5 mL of a liquid scintillation cocktail (Atomlight, from PACKARD), and the radioactivity on the filter was determined by a liquid scintillation counter (Model 1500, from PACKARD) for 2 minutes. […]
pIC50: −log10 of the molar value. Where a name gives a salt, the structure may show the parent alone.
measuredMetric: pIC50

[[record]]
compound = "CCOc1cc2c(cc1OC)CC(CC1CCN(Cc3ccccc3)CC1)C2=O (stereo not drawn) [Example 1, hydrochloride]"
measuredmetric = "pIC50"
valuemeasured = 8.29

[[record]]
compound = "CCOc1cc2c(cc1OC)CC(F)(CC1CCN(Cc3ccccc3)CC1)C2=O (stereo not drawn) [Example 37, hydrochloride]"
measuredmetric = "pIC50"
valuemeasured = 8.37

[[record]]
compound = "CCOc1cc2c(cc1OCC)C(=O)C(F)(CC1CCN(Cc3cccc(F)c3)CC1)C2 (stereo not drawn) [Example 41, hydrochloride]"
measuredmetric = "pIC50"
valuemeasured = 8.52

[[record]]
compound = "O=C1c2ccc(C3CCCCC3)cc2CC1CC1CCN(Cc2ccccc2)CC1 (stereo not drawn) [Example 22, hydrochloride]"
measuredmetric = "pIC50"
valuemeasured = 8.89

[[record]]
compound = "CCOc1cc2c(cc1OCC)C(=O)C(CC1CCN(Cc3ccc(Cl)cc3)CC1)C2 (stereo not drawn) [Example 13, hydrochloride]"
measuredmetric = "pIC50"
valuemeasured = 8.80

[[record]]
compound = "CCOc1cc2c(cc1OCC)C(=O)C(F)(CC1CCN(Cc3ccccc3Cl)CC1)C2 (stereo not drawn) [Example 43, hydrochloride]"
measuredmetric = "pIC50"
valuemeasured = 8.82

[[record]]
compound = "CCOc1cc2c(cc1OCC)C(=O)C(Cl)(CC1CCN(Cc3ccccc3)CC1)C2.Cl (stereo not drawn) [Example 68, hydrochloride]"
measuredmetric = "pIC50"
valuemeasured = 8.59

[[record]]
compound = "CCOc1cc2c(cc1OCC)C(=O)C(F)(CC1CCN(CC3CCCCCC3)CC1)C2 (stereo not drawn) [Example 51, hydrochloride]"
measuredmetric = "pIC50"
valuemeasured = 8.96

[[record]]
compound = "CCOc1cc2c(cc1OCC)C(=O)C(CC1CCN(Cc3ccccc3)CC1)C2.Cl (stereo not drawn) [Example 30, hydrochloride]"
measuredmetric = "pIC50"
valuemeasured = 8.43

[[record]]
compound = "Cl.O=C1c2ccccc2CC1CC1CCN(Cc2ccccc2)CC1 (stereo not drawn) [Example 27, hydrochloride]"
measuredmetric = "pIC50"
valuemeasured = 8.77

[[record]]
compound = "COc1cc2c(cc1OC)C(=O)C(CCCC1CCN(Cc3ccccc3)CC1)C2.Cl (stereo not drawn) [Example 33, hydrochloride]"
measuredmetric = "pIC50"
valuemeasured = 8.12

[[record]]
compound = "CCOc1cc2c(cc1OCC)C(=O)C(F)(CC1CCN(CC3CCCCCCC3)CC1)C2 (stereo not drawn) [Example 52, hydrochloride]"
measuredmetric = "pIC50"
valuemeasured = 8.96

[[record]]
compound = "CCOc1cc2c(cc1OCC)C(=O)C(F)(CC1CCN(Cc3ccc(C)cc3)CC1)C2 (stereo not drawn) [Example 48, hydrochloride]"
measuredmetric = "pIC50"
valuemeasured = 8.55

[[record]]
compound = "COc1ccc2c(c1)CC(CC1CCN(Cc3ccccc3)CC1)C2=O.Cl (stereo not drawn) [Example 28, hydrochloride]"
measuredmetric = "pIC50"
valuemeasured = 8.64

[[record]]
compound = "CCCOc1cc2c(cc1OCCC)C(=O)C(F)(CC1CCN(Cc3ccccc3)CC1)C2.Cl (stereo not drawn) [Example 58, hydrochloride]"
measuredmetric = "pIC50"
valuemeasured = 8.89

